- TESTED_SYSTEM: mouse sEH (Mus musculus)
- Construct: made in house; host or cells: baculovirus expression system
- Sequence (P34914 whole entry): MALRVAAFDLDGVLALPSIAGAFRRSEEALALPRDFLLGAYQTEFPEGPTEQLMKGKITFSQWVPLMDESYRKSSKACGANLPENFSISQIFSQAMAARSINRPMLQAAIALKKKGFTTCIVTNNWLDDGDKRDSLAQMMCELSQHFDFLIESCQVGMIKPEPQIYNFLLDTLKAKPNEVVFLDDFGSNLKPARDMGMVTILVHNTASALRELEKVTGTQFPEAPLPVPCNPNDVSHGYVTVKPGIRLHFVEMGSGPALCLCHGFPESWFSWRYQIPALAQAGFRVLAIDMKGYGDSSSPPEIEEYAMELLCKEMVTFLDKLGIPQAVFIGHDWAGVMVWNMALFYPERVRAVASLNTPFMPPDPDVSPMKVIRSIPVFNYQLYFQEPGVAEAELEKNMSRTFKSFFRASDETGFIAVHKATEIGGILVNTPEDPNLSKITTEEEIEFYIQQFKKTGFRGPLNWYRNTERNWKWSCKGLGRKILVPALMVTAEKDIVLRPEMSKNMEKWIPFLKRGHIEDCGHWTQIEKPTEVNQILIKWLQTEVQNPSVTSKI
- EXPERIMENTAL_DETAILS: Inhibition of recombinant mouse sEH, IC50 assay with 4-nitrophenyl-trans-2,3-epoxy-3-phenylpropyl carbonate as substrate
- Assay type: biochemical
- RECORDED_CONDITIONS: Table 5; 0.12 μM enzyme, 5 min preincubation, pH 7.4, 30° C.; means ± SD
OBSERVATION_TYPE: IC90 (µM)
Answers are plain numbers, in µM.

Some compounds with known IC90 results, for comparison:
CCOC(=O)CCCCOC(=O)CCCNC(=O)NC12CC3CC(CC(C3)C1)C2    0.1
CCOC(=O)CCCCCCCCCCCOC(=O)CCCNC(=O)NC12CC3CC(CC(C3)C1)C2    0.63
CCOC(=O)CCCCCCCCCOC(=O)CCCNC(=O)NC12CC3CC(CC(C3)C1)C2    0.26
CCOC(=O)COC(=O)CCCNC(=O)NC12CC3CC(CC(C3)C1)C2    0.11
CCOC(=O)CCCCCCCCCCOC(=O)CCCNC(=O)NC12CC3CC(CC(C3)C1)C2    0.35
CCOC(=O)CCOC(=O)CCCNC(=O)NC12CC3CC(CC(C3)C1)C2    0.63
CCOC(=O)CCCOC(=O)CCCNC(=O)NC12CC3CC(CC(C3)C1)C2    0.16
CCOC(=O)CCCCCCOC(=O)CCCNC(=O)NC12CC3CC(CC(C3)C1)C2    0.13

Here is another compound to look at.
IN: Using the record for "CCOC(=O)CCCCCCCOC(=O)CCCNC(=O)NC12CC3CC(CC(C3)C1)C2" , report its IC90.
OUT: 0.16
